target: porcine pancreatic elastase (Sus scrofa); construct: purchased Sigma, USA; test: Inhibition of porcine pancreatic elastase (hydrolysis of MeOSuc-AAA-pNA); assay type: biochemical; conditions: ratio of PPE IC50 to hNE IC50
Sequence (P00772 27-266): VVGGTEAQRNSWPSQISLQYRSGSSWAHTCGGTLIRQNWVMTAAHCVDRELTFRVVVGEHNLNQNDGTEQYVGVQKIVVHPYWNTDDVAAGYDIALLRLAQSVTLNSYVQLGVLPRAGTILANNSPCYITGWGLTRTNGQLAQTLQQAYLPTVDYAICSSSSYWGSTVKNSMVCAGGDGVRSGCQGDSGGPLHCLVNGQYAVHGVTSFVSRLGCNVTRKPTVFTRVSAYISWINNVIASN
Where a SMILES comes first, the peptide text is derived from it. [ ]: non-standard residue; d: D form. Oic = O=C(O)[C@@H]1C[C@@H]2CCCC[C@@H]2N1; Gly(octyl) = CCCCCCCC[C@H](N)C(=O)O; N(CH2CH2COOH)Gly = O=C(O)CCNCC(=O)O; hTyr = N[C@@H](CCc1ccc(O)cc1)C(=O)O; AllylGly = C=CC[C@H](N)C(=O)O
Listed below: hNE/PPE selectivity values for each entry.

Previously resolved entries follow.
molecule	hNE/PPE selectivity
C=CC[C@@H]1NC(=O)[C@H]([C@@H](C)O)NC(=O)[C@H](CCC(=O)O)NC(=O)[C@H](CCC(=O)N[C@@H](Cc2ccccc2)C(=O)O)NC(=O)[C@@H]2CCCN2C(=O)[C@H]2CCCN2C(=O)[C@H]([C@@H](C)O)NC(=O)[C@H](CCCCN)NC(=O)[C@H](CCC(N)=O)NC(=O)[C@@H]2CCCN2C(=O)[C@@H]2CCCN2C(=O)[C@H]([C@@H](C)CC)NC(=O)[C@H](CO)NC1=O [Example 19] (cyclo(E(Phe)ET[AllylGly]SIPPQKT[dP]P))	>3030
CCCCCCCC[C@@H]1NC(=O)[C@@H]2CCCN2C(=O)[C@H]2CCCN2C(=O)[C@H]([C@@H](C)O)NC(=O)[C@H](CCCCN)NC(=O)[C@H](CCC(N)=O)NC(=O)CN(CCC(=O)O)C(=O)[C@@H]2CCCN2C(=O)[C@H]([C@@H](C)CC)NC(=O)[C@H](CO)NC(=O)[C@H](C)NC(=O)[C@H]([C@@H](C)O)NC(=O)[C@H](CCC(=O)O)NC1=O [Example 34] (cyclo([Gly(octyl)]ETASIP[N(CH2CH2COOH)Gly]QKT[dP]P))	512

Could you now look at the following molecule, please?
-- ask Param item = CC[C@H](C)[C@@H]1NC(=O)[C@H](CO)NC(=O)[C@H](C)NC(=O)[C@H]([C@@H](C)O)NC(=O)[C@H](CCc2ccc(O)cc2)NC(=O)[C@H](CCCNC(=N)N)NC(=O)[C@@H]2CCCN2C(=O)[C@H]2CCCN2C(=O)[C@H]([C@@H](C)O)NC(=O)[C@H](CCCCN)NC(=O)[C@H](CCC(N)=O)NC(=O)[C@@H]2C[C@@H]3CCCC[C@@H]3N2C(=O)[C@@H]2CCCN2C1=O [Example 42] (cyclo(R[hTyr]TASIP[Oic]QKT[dP]P)) ; retrieve measured hNE/PPE selectivity.
-- reply >20833
